Every entry's value here was drawn from ChEMBL document CHEMBL1240419.

test system: Staphylococcus aureus; experiment: Antibacterial activity against erythromycin, methicillin-resistant Staphylococcus aureus A333 by broth microdilution method; format: functional
ASSAY METRIC: MIC

>>> result("CC[C@H]1OC(=O)[C@H](C)[C@@H](OC(=O)NCc2ccc(OC)cc2)[C@H](C)[C@@H](O[C@@H]2O[C@H](C)C[C@H](N(C)C)[C@H]2O)[C@](C)(OC)C[C@@H](C)C(=O)[C@@H](C)[C@@H](OC)[C@]1(C)O")
"> 64 µg/mL"

[ask] Which measured MIC belongs to `CC[C@H]1OC(=O)[C@H](C)[C@@H](OC(=O)NCc2ccc(O)cc2)[C@H](C)[C@@H](O[C@@H]2O[C@H](C)C[C@H](N(C)C)[C@H]2O)[C@](C)(OC)C[C@@H](C)C(=O)[C@@H](C)[C@@H](OC)[C@]1(C)O` , tested on Staphylococcus aureus?
[reply] > 64 µg/mL

====

system: Staphylococcus aureus; assay: Antibacterial activity against erythromycin, methicillin-resistant Staphylococcus aureus A333 by broth microdilution method; type: functional
# MIC per record follows

Reference set (5 entries):
>>> result("CC[C@H]1OC(=O)[C@H](C)[C@@H](OC(=O)NCCc2ccc(OC)cc2)[C@H](C)[C@@H](O[C@@H]2O[C@H](C)C[C@H](N(C)C)[C@H]2O)[C@](C)(OC)C[C@@H](C)C(=O)[C@@H](C)[C@@H](OC)[C@]1(C)O")
"> 64 µg/mL"
>>> result("CC[C@H]1OC(=O)[C@H](C)[C@@H](OC(=O)NCc2ccc(F)cc2)[C@H](C)[C@@H](O[C@@H]2O[C@H](C)C[C@H](N(C)C)[C@H]2O)[C@](C)(OC)C[C@@H](C)C(=O)[C@@H](C)[C@@H](OC)[C@]1(C)O")
"> 64 µg/mL"
>>> result("CC[C@H]1OC(=O)[C@H](C)[C@@H](OC(=O)NC2CCCCC2)[C@H](C)[C@@H](O[C@@H]2O[C@H](C)C[C@H](N(C)C)[C@H]2O)[C@](C)(OC)C[C@@H](C)C(=O)[C@@H](C)[C@@H](OC)[C@]1(C)O")
"> 64 µg/mL"
>>> result("CC[C@H]1OC(=O)[C@H](C)[C@@H](OC(=O)NCCc2ccccc2Br)[C@H](C)[C@@H](O[C@@H]2O[C@H](C)C[C@H](N(C)C)[C@H]2O)[C@](C)(OC)C[C@@H](C)C(=O)[C@@H](C)[C@@H](OC)[C@]1(C)O")
"64 µg/mL"
>>> result("CC[C@H]1OC(=O)[C@H](C)[C@@H](OC(=O)NCc2ccc(Cl)cc2)[C@H](C)[C@@H](O[C@@H]2O[C@H](C)C[C@H](N(C)C)[C@H]2O)[C@](C)(OC)C[C@@H](C)C(=O)[C@@H](C)[C@@H](OC)[C@]1(C)O")
"> 64 µg/mL"

[ask] # input molecule: `CC[C@H]1OC(=O)[C@H](C)[C@@H](OC(=O)NCCCOC)[C@H](C)[C@@H](O[C@@H]2O[C@H](C)C[C@H](N(C)C)[C@H]2O)[C@](C)(OC)C[C@@H](C)C(=O)[C@@H](C)[C@@H](OC)[C@]1(C)O` ; wanted: its MIC
[reply] > 64 µg/mL

[ask] # input molecule: `CCCNC(=O)O[C@H]1[C@H](C)[C@@H](O[C@@H]2O[C@H](C)C[C@H](N(C)C)[C@H]2O)[C@](C)(OC)C[C@@H](C)C(=O)[C@@H](C)[C@@H](OC)[C@](C)(O)[C@@H](CC)OC(=O)[C@@H]1C` ; wanted: its MIC
[reply] > 64 µg/mL

[ask] # input molecule: `CC[C@H]1OC(=O)[C@H](C)[C@@H](OC(=O)NCCc2ccc(O)cc2)[C@H](C)[C@@H](O[C@@H]2O[C@H](C)C[C@H](N(C)C)[C@H]2O)[C@](C)(OC)C[C@@H](C)C(=O)[C@@H](C)[C@@H](OC)[C@]1(C)O` ; wanted: its MIC
[reply] > 64 µg/mL

[ask] # input molecule: `CC[C@H]1OC(=O)[C@H](C)[C@@H](OC(=O)NCCc2ccc(F)cc2)[C@H](C)[C@@H](O[C@@H]2O[C@H](C)C[C@H](N(C)C)[C@H]2O)[C@](C)(OC)C[C@@H](C)C(=O)[C@@H](C)[C@@H](OC)[C@]1(C)O` ; wanted: its MIC
[reply] 32 µg/mL

[ask] # input molecule: `CC[C@H]1OC(=O)[C@H](C)[C@@H](OC(=O)NCc2ccccc2)[C@H](C)[C@@H](O[C@@H]2O[C@H](C)C[C@H](N(C)C)[C@H]2O)[C@](C)(OC)C[C@@H](C)C(=O)[C@@H](C)[C@@H](OC)[C@]1(C)O` ; wanted: its MIC
[reply] > 64 µg/mL

[ask] # input molecule: `CC[C@H]1OC(=O)[C@H](C)[C@@H](OC(=O)NCCc2ccccc2Cl)[C@H](C)[C@@H](O[C@@H]2O[C@H](C)C[C@H](N(C)C)[C@H]2O)[C@](C)(OC)C[C@@H](C)C(=O)[C@@H](C)[C@@H](OC)[C@]1(C)O` ; wanted: its MIC
[reply] > 64 µg/mL

[ask] # input molecule: `CC[C@H]1OC(=O)[C@H](C)[C@@H](OC(=O)NCCCO)[C@H](C)[C@@H](O[C@@H]2O[C@H](C)C[C@H](N(C)C)[C@H]2O)[C@](C)(OC)C[C@@H](C)C(=O)[C@@H](C)[C@@H](OC)[C@]1(C)O` ; wanted: its MIC
[reply] > 64 µg/mL

[ask] # input molecule: `CC[C@H]1OC(=O)[C@H](C)[C@@H](O[C@H]2C[C@@](C)(OC)[C@@H](O)[C@H](C)O2)[C@H](C)[C@@H](O[C@@H]2O[C@H](C)C[C@H](N(C)C)[C@H]2O)[C@](C)(O)C[C@@H](C)CN(C)[C@H](C)[C@@H](O)[C@]1(C)O` ; wanted: its MIC
[reply] > 64 µg/mL

[ask] # input molecule: `CC[C@H]1OC(=O)[C@H](C)[C@@H](O[C@H]2C[C@@](C)(OC)[C@@H](O)[C@H](C)O2)[C@H](C)[C@@H](O[C@@H]2O[C@H](C)C[C@H](N(C)C)[C@H]2O)[C@](C)(O)C[C@@H](C)C(=O)[C@H](C)[C@@H](O)[C@]1(C)O` ; wanted: its MIC
[reply] > 64 µg/mL

[ask] # input molecule: `CC[C@H]1OC(=O)[C@H](C)[C@@H](O[C@H]2C[C@@](C)(OC)[C@@H](O)[C@H](C)O2)[C@H](C)[C@@H](O[C@@H]2O[C@H](C)C[C@H](N(C)C)[C@H]2O)[C@](C)(OC)C[C@@H](C)C(=O)[C@H](C)[C@@H](O)[C@]1(C)O` ; wanted: its MIC
[reply] > 64 µg/mL

[ask] # input molecule: `CC[C@H]1OC(=O)[C@H](C)[C@@H](OC(=O)NCCc2ccc(OC)c(OC)c2)[C@H](C)[C@@H](O[C@@H]2O[C@H](C)C[C@H](N(C)C)[C@H]2O)[C@](C)(OC)C[C@@H](C)C(=O)[C@@H](C)[C@@H](OC)[C@]1(C)O` ; wanted: its MIC
[reply] > 64 µg/mL

[ask] # input molecule: `CC[C@H]1OC(=O)[C@H](C)[C@@H](OC(=O)NCc2ccc(Br)cc2)[C@H](C)[C@@H](O[C@@H]2O[C@H](C)C[C@H](N(C)C)[C@H]2O)[C@](C)(OC)C[C@@H](C)C(=O)[C@@H](C)[C@@H](OC)[C@]1(C)O` ; wanted: its MIC
[reply] 32 µg/mL

[ask] # input molecule: `CCCCNC(=O)O[C@H]1[C@H](C)[C@@H](O[C@@H]2O[C@H](C)C[C@H](N(C)C)[C@H]2O)[C@](C)(OC)C[C@@H](C)C(=O)[C@@H](C)[C@@H](OC)[C@](C)(O)[C@@H](CC)OC(=O)[C@@H]1C` ; wanted: its MIC
[reply] > 64 µg/mL

[ask] # input molecule: `CC[C@H]1OC(=O)[C@H](C)[C@@H](OC(=O)NCc2ccco2)[C@H](C)[C@@H](O[C@@H]2O[C@H](C)C[C@H](N(C)C)[C@H]2O)[C@](C)(OC)C[C@@H](C)C(=O)[C@@H](C)[C@@H](OC)[C@]1(C)O` ; wanted: its MIC
[reply] > 64 µg/mL

====

test system: Haemophilus influenzae; assay: Antibacterial activity against ampicillin-resistant Haemophilus influenzae 3300 by broth microdilution method; type: functional
# MIC per record follows
Provide the reading as a plain figure in µg/mL.

>>> numeric_readout("CC[C@H]1OC(=O)[C@H](C)[C@@H](OC(=O)NCc2ccccc2)[C@H](C)[C@@H](O[C@@H]2O[C@H](C)C[C@H](N(C)C)[C@H]2O)[C@](C)(OC)C[C@@H](C)C(=O)[C@@H](C)[C@@H](OC)[C@]1(C)O")
4
>>> numeric_readout("CC[C@H]1OC(=O)[C@H](C)[C@@H](O[C@H]2C[C@@](C)(OC)[C@@H](O)[C@H](C)O2)[C@H](C)[C@@H](O[C@@H]2O[C@H](C)C[C@H](N(C)C)[C@H]2O)[C@](C)(O)C[C@@H](C)C(=O)[C@H](C)[C@@H](O)[C@]1(C)O")
16
>>> numeric_readout("CCCNC(=O)O[C@H]1[C@H](C)[C@@H](O[C@@H]2O[C@H](C)C[C@H](N(C)C)[C@H]2O)[C@](C)(OC)C[C@@H](C)C(=O)[C@@H](C)[C@@H](OC)[C@](C)(O)[C@@H](CC)OC(=O)[C@@H]1C")
64

# input for lookup
[ask] Which measured MIC belongs to `CC[C@H]1OC(=O)[C@H](C)[C@@H](O[C@H]2C[C@@](C)(OC)[C@@H](O)[C@H](C)O2)[C@H](C)[C@@H](O[C@@H]2O[C@H](C)C[C@H](N(C)C)[C@H]2O)[C@](C)(O)C[C@@H](C)CN(C)[C@H](C)[C@@H](O)[C@]1(C)O` , tested on Haemophilus influenzae?
[reply] 4
